Where these numbers come from: ChEMBL document CHEMBL1135862

Below: a set of entries, each annotated with reported Inhibition.
# Test system: Staphylococcus aureus
# measurement.notes: The compound was evaluated for anti microbial activity against Staphylococcus aureus after 96 hr incubation
# Format: functional
# Design: concentration or dose not given beside the values

# compound, measurement.unit, Inhibition
data = [
    ("CCCCCCCCc1cc(C)oc(=O)c1", "%", 20.5),
    ("Cc1cc(-c2ccc(C=O)cc2)cc(=O)o1", "%", 20.5),
    ("Cc1cc(-c2ccc(Cl)cc2)cc(=O)o1", "%", 22.7),
    ("CCCCCC/C=C/c1cc(C)oc(=O)c1", "%", 20.5),
    ("Cc1cc(C#CCOC2CCCCO2)cc(=O)o1 (centres undefined)", "%", 34.1),
    ("CCC/C=C/c1cc(C)oc(=O)c1", "%", 22.7),
    ("CCCCCCCc1cc(C)oc(=O)c1", "%", 15.9),
    ("C#Cc1cc(C)oc(=O)c1", "%", 34.1),
    ("CCCCC/C=C/c1cc(C)oc(=O)c1", "%", 19.3),
    ("CCCCCCC#Cc1cc(C)oc(=O)c1", "%", 20.5),
    ("CCCC#Cc1cc(C)oc(=O)c1", "%", 23.9),
    ("CCCCCC#Cc1cc(C)oc(=O)c1", "%", 23.9),
    ("CC(=O)Nc1ccc(C#Cc2cc(C)oc(=O)c2)cc1", "%", 18.2),
    ("Cc1cc(-c2ccccc2)cc(=O)o1", "%", 20.5),
]

----------
# Test system: Staphylococcus aureus
# measurement.notes: Antimicrobial activity against Staphylococcus aureus after 96h incubation
# Type: functional

# chem.smiles, measurement.unit, Inhibition
rows = [
    ("CCCCCCCc1cc(C)oc(=O)c1", "mm", 14),
    ("CCc1cc(C)oc(=O)c1", "mm", 0),
    ("CCCCC#Cc1cc(C)oc(=O)c1", "mm", 0),
    ("CCCCC/C=C/c1cc(C)oc(=O)c1", "mm", 17),
    ("CCCCCCc1cc(C)oc(=O)c1", "mm", 0),
    ("CCCCCC/C=C/c1cc(C)oc(=O)c1", "mm", 18),
    ("Cc1cc(C#Cc2ccccc2)cc(=O)o1", "mm", 0),
    ("CCC/C=C/c1cc(C)oc(=O)c1", "mm", 20),
    ("Cc1cc(-c2ccccc2)cc(=O)o1", "mm", 18),
    ("CCCCCc1cc(C)oc(=O)c1", "mm", 0),
    ("C#Cc1cc(C)oc(=O)c1", "mm", 30),
    ("CCCCCCC#Cc1cc(C)oc(=O)c1", "mm", 18),
]

----------
# Tested on: Candida albicans
# measurement.notes: Anti fungal activity against Candida albicans after 48 hr incubation
# Format: functional
# Parameters: concentration or dose not given beside the values

# compound, measurement.unit, Inhibition
measured = [
    ("CCCCC#Cc1cc(C)oc(=O)c1", "%", 22.7),
    ("C#Cc1cc(C)oc(=O)c1", "%", 40.9),
    ("CCCCCCCCc1cc(C)oc(=O)c1", "%", 22.7),
    ("CCCC/C=C/c1cc(C)oc(=O)c1", "%", 27.3),
    ("CCCC#Cc1cc(C)oc(=O)c1", "%", 12.5),
    ("CCCCC/C=C/c1cc(C)oc(=O)c1", "%", 23.9),
    ("CCCCCC/C=C/c1cc(C)oc(=O)c1", "%", 22.7),
    ("CCC/C=C/c1cc(C)oc(=O)c1", "%", 18.2),
    ("Cc1cc(C#CCOC2CCCCO2)cc(=O)o1 (configuration not stated)", "%", 14.8),
    ("CCCCCCCc1cc(C)oc(=O)c1", "%", 18.2),
    ("CCCCCCc1cc(C)oc(=O)c1", "%", 12.5),
    ("CCCCCC#Cc1cc(C)oc(=O)c1", "%", 25),
]
